Recorded EC50, one value per entry.
# Test system: Respiratory Syncytial Virus (RSV) long strain
# assay-notes: microbe, parasite or virus in culture
# Type: cell-based
# cond: human respiratory syncytial virus, HEp-2, 120 h, read-out: 50% effective concentration (EC50), HEp-2 cells infected with RSV long strain, 5 days, CCK-8 readout; Tables A and B list compounds by EC50 band
outcome-measure: EC50

[
  {
    "molecule": "COc1ccc(C(=O)NCC(O)(c2ccc(OC)c(-c3ccc(F)c(Cl)c3)n2)C(F)(F)F)cc1OC (stereo not shown) [Compound 337]",
    "outcome-measure": "EC50",
    "observed-value": "1000 to 50000 nM"
  },
  {
    "molecule": "COc1cc(C(=O)NCC(O)(c2ccc(OC)c(-c3ccc(F)c(Cl)c3)n2)C2CC2)ccc1OC(C)(F)F (stereo not shown) [Compound 437]",
    "outcome-measure": "EC50",
    "observed-value": "1000 to 50000 nM"
  },
  {
    "molecule": "COc1cc(C(=O)NCC(O)(c2ccc(OC)c(-c3ccc(F)c(Cl)c3)n2)C2CC2)ccc1CCCO (stereo not shown) [Compound 426]",
    "outcome-measure": "EC50",
    "observed-value": "< 1000 nM"
  },
  {
    "molecule": "COc1cc(C(=O)NCC(O)(c2cc(C(C)(C)N)cc(-c3ccc(I)nc3)n2)C(F)(F)F)ccc1OC1CC1 (stereo not shown) [Compound 557]",
    "outcome-measure": "EC50",
    "observed-value": "< 1000 nM"
  },
  {
    "molecule": "CC1(C)COc2c1cc(C(O)(CNC(=O)c1cc(O)c3ncccc3c1)C(F)(F)F)nc2-c1ccc(F)c(Cl)c1 (stereo not shown) [Compound 207]",
    "outcome-measure": "EC50",
    "observed-value": "1000 to 50000 nM"
  },
  {
    "molecule": "COc1ccc(C(O)(CNC(=O)c2ccc3[nH]cnc3c2)C(F)(F)F)nc1-c1ccc(F)c(Cl)c1 (stereo not shown) [Compound 253]",
    "outcome-measure": "EC50",
    "observed-value": "1000 to 50000 nM"
  },
  {
    "molecule": "COc1cc(C(=O)NC[C@@](O)(c2cc(C(C)(C)N)cc(-c3ccc(F)cc3)n2)C(F)(F)F)ccc1OC[C@@H](C)O [Compound 545]",
    "outcome-measure": "EC50",
    "observed-value": "< 1000 nM"
  },
  {
    "molecule": "COc1cc(C(=O)NCC(O)(c2cc(C(C)(N)CF)cc(-c3ccc(F)cc3)n2)C(F)(F)F)ccc1OCC(N)=O (stereo not shown) [Compound 615]",
    "outcome-measure": "EC50",
    "observed-value": "< 1000 nM"
  },
  {
    "molecule": "COc1cc(C(=O)NCC(N)(CF)c2ccc(OC)c(-c3ccc(F)c(Cl)c3)n2)ccc1OC1CC1 (stereo not shown) [Compound 518]",
    "outcome-measure": "EC50",
    "observed-value": "< 1000 nM"
  },
  {
    "molecule": "CCOc1ccc(C(=O)NCC(O)(c2cc3c(c(-c4ccc(F)c(Cl)c4)n2)OCC3(C)N)C(F)(F)F)cc1Cl (stereo not shown) [Compound 494]",
    "outcome-measure": "EC50",
    "observed-value": "< 1000 nM"
  },
  {
    "molecule": "COc1cc(C(=O)NCC(O)(c2cc(C(N)=O)cc(-c3ccc(F)c(Cl)c3)n2)C(F)(F)F)ccc1OC1CC1 (stereo not shown) [Compound 464]",
    "outcome-measure": "EC50",
    "observed-value": "< 1000 nM"
  },
  {
    "molecule": "CCC1(N)COc2c1cc(C(O)(CNC(=O)c1ccc(OC3CC3)c(OC)c1)C(F)(F)F)nc2-c1ccc(F)cc1 (stereo not shown) [Compound 531]",
    "outcome-measure": "EC50",
    "observed-value": "< 1000 nM"
  },
  {
    "molecule": "COc1ccc(C(O)(CNC(=O)c2ccc(OCCO)c(Cl)c2)C(F)(F)F)nc1-c1ccc(F)c(Cl)c1 (stereo not shown) [Compound 262]",
    "outcome-measure": "EC50",
    "observed-value": "< 1000 nM"
  },
  {
    "molecule": "COc1cc(C(=O)NCC(N)(c2cc(C(C)(C)N)cc(-c3ccc(F)c(Cl)c3)n2)C(F)(F)F)ccc1OC1CC1 (stereo not shown) [Compound 504]",
    "outcome-measure": "EC50",
    "observed-value": "< 1000 nM"
  },
  {
    "molecule": "COc1cc(C(=O)NCC(O)(c2ccc(OC)c(-c3ccc(F)c(Cl)c3)n2)C(F)(F)F)ccc1OC1CCCC1=O (stereo not shown) [Compound 257]",
    "outcome-measure": "EC50",
    "observed-value": "< 1000 nM"
  },
  {
    "molecule": "COc1cc(C(=O)NCC(C)(O)c2ccc(OC)c(-c3ccc(F)c(Cl)c3)n2)ccc1OC1CC1 (stereo not shown) [Compound 369]",
    "outcome-measure": "EC50",
    "observed-value": "< 1000 nM"
  },
  {
    "molecule": "COc1cc(C(=O)NCC(O)(c2cc(C(C)(N)CF)cc(-c3ccc(F)cc3)n2)C(F)(F)F)ccc1OC[C@@H](C)O (stereo partly shown) [Compound 614]",
    "outcome-measure": "EC50",
    "observed-value": "< 1000 nM"
  },
  {
    "molecule": "CCNC(=O)NC(C)(C)c1cc(-c2ccc(F)c(Cl)c2)nc(C(O)(CNC(=O)c2ccc(OC3CC3)c(OC)c2)C(F)(F)F)c1 (stereo not shown) [Compound 387]",
    "outcome-measure": "EC50",
    "observed-value": "< 1000 nM"
  },
  {
    "molecule": "COCC(C)(N)c1cc(-c2ccc(F)c(Cl)c2)nc(C(O)(CNC(=O)c2ccc(OC3CC3)c(OC)c2)C(F)(F)F)c1 (stereo not shown) [Compound 535]",
    "outcome-measure": "EC50",
    "observed-value": "< 1000 nM"
  }
]

---

# assay-notes: Cytotoxicity Determination (CCK-8, without addition of virus)
# Assay type: cell-based
# cond: human, 50% cytotoxicity concentration (CC50)
# Procedure: CPE reduction assays are performed as described by Sidwell and Huffman et al., Appl. Microbiol. (1971) 22(5):797-801 with slight modifications. HEp-2 cells (ATCC #, CCL-23) are seeded at a density of 1,500 cells/30 μl/well into the 384-well cell plate(s) (Corning #3701) one day prior to the assay. Compounds are added into 384-well cell plates by Labcyte POD 810 Plate Assembler system. […] Place on ice until ready to use. […]

[
  {
    "compound": "COc1cc(C(=O)NCC(F)(c2ccc(OC)c(-c3ccc(F)c(Cl)c3)n2)C(F)(F)F)ccc1OC[C@@H](C)O (stereo partly shown)",
    "CC50 at 5 days": "10 to 100 µM"
  },
  {
    "compound": "CCc1cc(-c2ccc(F)cc2)nc(C(C)(O)CNC(=O)c2ccc(OCCO)c(OC)c2)c1 (stereo not shown)",
    "CC50 at 5 days": "> 100 µM"
  },
  {
    "compound": "COc1cc(C(=O)NCC(O)(c2cc(C(C)(C)N)cc(-c3ccc(F)c(Cl)c3)n2)C(F)(F)F)ccc1O[C@@H]1CCNC1=O (stereo partly shown)",
    "CC50 at 5 days": "10 to 100 µM"
  },
  {
    "compound": "CCNC(C)(C)c1cc(-c2ccc(F)cc2)nc(C(O)(CNC(=O)c2ccc(OC3CC3)c(OC)c2)C(F)(F)F)c1 (stereo not shown)",
    "CC50 at 5 days": "10 to 100 µM"
  }
]

---

# measured-on: recombinant RSV complex (Human respiratory syncytial virus A, UniProt P28887)
# Sequence (P28887 whole entry): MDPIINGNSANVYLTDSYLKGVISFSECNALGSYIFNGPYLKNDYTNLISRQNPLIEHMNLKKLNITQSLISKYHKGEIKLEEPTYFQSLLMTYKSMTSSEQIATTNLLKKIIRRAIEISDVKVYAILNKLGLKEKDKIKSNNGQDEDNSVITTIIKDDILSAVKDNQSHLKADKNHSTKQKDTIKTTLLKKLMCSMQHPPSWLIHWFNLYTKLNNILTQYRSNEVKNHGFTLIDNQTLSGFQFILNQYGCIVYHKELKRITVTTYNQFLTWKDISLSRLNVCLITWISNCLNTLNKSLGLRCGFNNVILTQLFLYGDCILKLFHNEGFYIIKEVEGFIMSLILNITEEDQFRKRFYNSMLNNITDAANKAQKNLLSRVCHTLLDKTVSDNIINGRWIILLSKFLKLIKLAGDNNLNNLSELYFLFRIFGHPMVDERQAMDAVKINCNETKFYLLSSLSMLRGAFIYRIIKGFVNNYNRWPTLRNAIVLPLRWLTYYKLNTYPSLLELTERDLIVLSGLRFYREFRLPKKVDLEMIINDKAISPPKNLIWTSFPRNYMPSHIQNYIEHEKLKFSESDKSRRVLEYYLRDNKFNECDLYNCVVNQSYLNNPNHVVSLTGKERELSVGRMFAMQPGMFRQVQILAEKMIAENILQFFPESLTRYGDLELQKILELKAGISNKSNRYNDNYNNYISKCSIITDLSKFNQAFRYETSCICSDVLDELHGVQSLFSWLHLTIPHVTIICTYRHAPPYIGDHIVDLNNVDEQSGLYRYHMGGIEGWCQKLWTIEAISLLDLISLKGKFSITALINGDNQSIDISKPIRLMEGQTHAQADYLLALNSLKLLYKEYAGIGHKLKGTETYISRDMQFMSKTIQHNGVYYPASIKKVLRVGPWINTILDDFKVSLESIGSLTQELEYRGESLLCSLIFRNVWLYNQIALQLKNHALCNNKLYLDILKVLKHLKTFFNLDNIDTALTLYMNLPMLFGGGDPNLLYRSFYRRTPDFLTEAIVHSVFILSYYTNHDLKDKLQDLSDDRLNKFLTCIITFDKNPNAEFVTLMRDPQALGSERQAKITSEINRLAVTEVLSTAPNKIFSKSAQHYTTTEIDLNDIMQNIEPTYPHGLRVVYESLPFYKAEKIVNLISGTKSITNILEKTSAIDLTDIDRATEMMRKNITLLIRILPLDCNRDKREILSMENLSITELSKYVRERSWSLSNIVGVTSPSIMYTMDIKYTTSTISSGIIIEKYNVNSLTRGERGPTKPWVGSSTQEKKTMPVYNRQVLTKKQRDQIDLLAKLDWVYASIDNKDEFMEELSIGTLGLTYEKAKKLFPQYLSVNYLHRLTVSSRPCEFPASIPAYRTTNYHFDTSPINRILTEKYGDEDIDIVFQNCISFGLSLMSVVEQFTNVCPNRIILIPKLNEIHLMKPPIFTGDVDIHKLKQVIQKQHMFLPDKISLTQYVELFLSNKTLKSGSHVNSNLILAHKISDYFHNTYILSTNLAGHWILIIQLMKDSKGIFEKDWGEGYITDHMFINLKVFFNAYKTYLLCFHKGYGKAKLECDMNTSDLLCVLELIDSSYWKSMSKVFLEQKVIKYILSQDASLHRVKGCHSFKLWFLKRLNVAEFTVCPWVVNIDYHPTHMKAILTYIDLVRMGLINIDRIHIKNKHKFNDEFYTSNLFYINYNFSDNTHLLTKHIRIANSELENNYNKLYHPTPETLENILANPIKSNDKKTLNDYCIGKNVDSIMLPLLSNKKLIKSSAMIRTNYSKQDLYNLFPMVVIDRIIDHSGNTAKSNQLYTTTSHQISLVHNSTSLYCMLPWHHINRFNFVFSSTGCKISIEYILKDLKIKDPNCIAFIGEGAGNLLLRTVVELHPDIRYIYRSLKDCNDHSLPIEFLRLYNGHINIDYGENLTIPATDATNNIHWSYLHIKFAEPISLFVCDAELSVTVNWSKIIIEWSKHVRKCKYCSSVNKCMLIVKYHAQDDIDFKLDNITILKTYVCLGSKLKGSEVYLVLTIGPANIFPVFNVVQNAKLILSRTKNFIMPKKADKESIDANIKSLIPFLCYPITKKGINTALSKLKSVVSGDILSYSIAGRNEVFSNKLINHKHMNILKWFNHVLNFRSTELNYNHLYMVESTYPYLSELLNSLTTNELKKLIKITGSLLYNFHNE
# Sequence (P03421 whole entry, further chain): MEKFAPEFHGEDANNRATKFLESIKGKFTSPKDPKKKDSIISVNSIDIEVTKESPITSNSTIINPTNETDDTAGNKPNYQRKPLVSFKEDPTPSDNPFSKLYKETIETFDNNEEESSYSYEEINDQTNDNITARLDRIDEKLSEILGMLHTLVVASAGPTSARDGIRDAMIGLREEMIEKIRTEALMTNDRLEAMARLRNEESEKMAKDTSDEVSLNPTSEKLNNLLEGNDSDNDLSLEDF
# assay-notes: RSV Polymerase Inhibition Assay
# Format: biochemical

[
  {
    "molecule": "COc1cc(C(=O)NCC(O)(c2cc(C(C)(N)CO)cc(-c3ccc(F)cc3)n2)C(F)(F)F)ccc1OCCO (centres unmarked)",
    "IC50": "< 10 µM"
  },
  {
    "molecule": "COc1cc(C(=O)NCC(O)(c2ccc(OC)c(-c3ccc(F)c(Cl)c3)n2)C(F)(F)F)ccc1OCC(C)(F)F (centres unmarked)",
    "IC50": "< 1 µM"
  },
  {
    "molecule": "COc1cc(C(=O)NCC(O)(c2cc(C(C)(N)C(F)F)cc(-c3ccc(F)cc3)n2)C(F)(F)F)ccc1OCCO (centres unmarked)",
    "IC50": "< 1 µM"
  },
  {
    "molecule": "COc1cc(C(=O)NCC(O)(c2ccc(OC)c(-c3ccc(F)c(Cl)c3)n2)C2CC2)ccc1OC(C)(F)F (centres unmarked)",
    "IC50": "< 1 µM"
  },
  {
    "molecule": "COc1cc(C(=O)NCC(O)(Cn2ccnc2)c2cc3c(c(-c4ccc(F)c(Cl)c4)n2)OCC3(C)C)ccc1OCCO (centres unmarked)",
    "IC50": "< 1 µM"
  }
]
